Tested on: HCT-116 (colon)
Test: Cancer Cell Proliferation Assay (acid phosphatase, 72 hrs)
Assay type: cell-based
Settings: Homo sapiens, read-out: IC50 on cancer cell line proliferation, HCT-116
pIC50: −log10 of the molar value.
MEASURED PROPERTY: pIC50

Known results for compounds:
O=C(/C=C/c1ccccc1)Nc1nc(NC(=O)c2ccccc2)nn1-c1ccccc1: 5.78
Cc1ccccc1C(=O)Nc1nc(NC(=O)c2ccccc2C)n(-c2ccc(Cl)cc2)n1: 6.53
Cc1ccccc1C(=O)Nc1nc(-c2ccccn2)nn1-c1ccccc1: 5.79
Cc1ccc(-c2nc(NC(=O)c3ccccc3C)n(-c3ccccc3)n2)nc1: 5.89

1. Cc1ccccc1C(=O)Nc1nc(-c2ncccc2C)nn1-c1ccccc1
2. Cc1ccccc1C(=O)Nc1nc(NC(=O)c2ccccc2)nn1-c1ccccc1
# input For the pair 1 and 2 , which entry has the numerically smaller recorded pIC50? Kindly state the label of the option you pick.
# output 2

a. O=C(Nc1nc(NC(=O)c2ccccc2)n(-c2ccc(OC(F)(F)F)cc2)n1)c1ccccc1
b. Cc1ccccc1C(=O)Nc1nc(NC(=O)c2ccccc2C)n(-c2ccccc2)n1
# input When a and b are compared, which has the higher number for pIC50? # answer = label of selected item
# output a
